B1: HDV Ribozyme (parent)
chain: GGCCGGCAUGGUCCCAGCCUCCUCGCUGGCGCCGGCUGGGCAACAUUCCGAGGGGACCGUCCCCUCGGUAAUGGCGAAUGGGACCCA

Variants of: B1
Experiment: self-cleavage, relative activity (ratio to wild type); higher = more cleavage; co-transcriptional
Class True: self-cleavage at least 0.2. Class False: self-cleavage below 0.2.

| residue-change | assigned-label |
| --- | --- |
| C14U U79C | True |
| G2A C7G | False |
| G82C A83G | True |
| C26A C63G | True |
| C49U A78C | False |
| C48A A87U | True |
| U27G U46G | True |
| C14A C30U | False |
| C30G G74C | False |
| A16C C63A | True |
| C4G G81A | False |
| A43U G50U | True |
| C44U U60C | True |
| G6U C61G | True |
| A78G C84G | False |
| C3U G35A | True |
| A8C G73A | True |
| A16U U69A | True |
| A8C A70G | True |
| U23C G54C | True |
| C14G C21G | False |
| C61A C86A | True |
